Catalogue of Life Time values
Assay: Fluorescence lifetimes of selected lanthanide (Tb, Eu, Dy, Sm) complexes
Format: physicochemical
Settings: Table 1
Experimental: Photophysical measurements: UV/visible and emission spectra were recorded on a Horiba Scientific Dual FL spectrophotometer. Ligands loaded with terbium were diluted into 1×PBS (pH 7.4) to a concentration of 20 uM (for absorbance) or 4 uM (for emission). For emission spectra, the data were normalized to the highest fluorescence signal. The fluorescence lifetime was determined by plotting the ln of the signal decay over time then solving for r in Equation 1: […]
Note to self: number, then unit, no commentary.

Use these answered entries as a reference point.
Q: Record request: Life Time value, item `Nc1nc(CCc2ccc(CNC(=O)CCCCCN3CCN4CCNC(=O)c5cccc(c5O)C(=O)NCCN(CCNC(=O)c5cccc(c5O)C3=O)CCN3CCNC(=O)c5cccc(c5O)C(=O)NCCN(CCNC(=O)c5cccc(c5O)C(=O)NCC3)CC4)cc2)c2nc[nH]c2n1`
Ans: 2.11 ms

Q: Record request: Life Time value, item `O=C(O)CCCCCN1CCN2CCNC(=O)c3cccc(c3O)C(=O)NCCN(CCNC(=O)c3cccc(c3O)C1=O)CCN1CCNC(=O)c3cccc(c3O)C(=O)NCCN(CCNC(=O)c3cccc(c3O)C(=O)NCC1)CC2`
Ans: 1.79 ms

Q: Record request: Life Time value, item `O=C(O)CN1CCN2CCNC(=O)c3cccc(c3O)C(=O)NCCN(CCNC(=O)c3cccc(c3O)C1=O)CCN1CCNC(=O)c3cccc(c3O)C(=O)NCCN(CCNC(=O)c3cccc(c3O)C(=O)NCC1)CC2`
Ans: 2.06 ms

Q: Record request: Life Time value, item `O=C1NCCN2CCNC(=O)c3cc(Br)cc(c3O)C(=O)NCCN(CCNC(=O)c3cc(Br)cc1c3O)CCN1CCNC(=O)c3cc(Br)cc(c3O)C(=O)NCCN(CCNC(=O)c3cc(Br)cc(c3O)C(=O)NCC1)CC2`
Ans: 0.97 ms

Q: Record request: Life Time value, item `O=C1NCCN2CCNC(=O)c3cccc(c3O)C(=O)NCCN(CCNC(=O)c3cccc1c3O)C(=O)N1CCNC(=O)c3cccc(c3O)C(=O)NCCN(CCNC(=O)c3cccc(c3O)C(=O)NCC1)CC2`
Ans: 1.39 ms

Q: Record request: Life Time value, item `O=C(O)CCCCCN1CCN2CCNC(=O)c3cccc(c3O)C(=O)NCCN(CCNC(=O)c3cccc(c3)C1=O)CCN1CCNC(=O)c3cccc(c3O)C(=O)NCCN(CCNC(=O)c3cccc(c3O)C(=O)NCC1)CC2`
Ans: 1.37 ms

---
Q: Record request: Life Time value, item `O=C(CCCCCN1CCN2CCNC(=O)c3cccc(c3O)C(=O)NCCN(CCNC(=O)c3cccc(c3O)C1=O)CCN1CCNC(=O)c3cccc(c3O)C(=O)NCCN(CCNC(=O)c3cccc(c3O)C(=O)NCC1)CC2)NCCOCCOCCCCCCCl`
Ans: 2.46 ms

Q: Record request: Life Time value, item `O=C1NCCN2CCNC(=O)c3cccc(c3O)C(=O)NCCN(CCNC(=O)c3cccc1c3O)CCN1CCNC(=O)c3cccc(c3O)C(=O)NCCN(CCNC(=O)c3cccc(c3O)C(=O)NCC1)CC2`
Ans: 2.56 ms

Q: Record request: Life Time value, item `O=C(O)CCCCCN1CCN2CCNC(=O)c3cccc(c3O)C(=O)NCCN(CCNC(=O)c3cccc(n3)C1=O)CCN1CCNC(=O)c3cccc(c3O)C(=O)NCCN(CCNC(=O)c3cccc(c3O)C(=O)NCC1)CC2`
Ans: 1.20 ms

The measurements presented in this section are drawn from patent US12134721B2.
